Test Protocol: Metabolic stability in mouse microsomes
Type: in vitro ADME
Recorded Conditions: mouse liver microsomes, 30 min, 37° C.; read-out: Microsomal stability (mouse) recovery of parent compound after 30 min (%)
Listing: recovery at 30 min, 10 µM of selected molecules
The reply should contain only the number, in %.

| Mol Smiles | recovery at 30 min, 10 µM [%] |
| --- | --- |
| CCCCOC(=O)c1cc(O)c(=O)c2c(O)c(O)c(Br)cc2c1 | 23 |

Entry under test: `O=C(O)c1cc(O)c(=O)c2c(O)c(O)c(Br)cc2c1` . Its recovery at 30 min, 10 µM was 100
